Target: Serotonin 3 (5-HT3) receptor
Assay: Binding affinity towards [3H]quipazine labeled 5-hydroxytryptamine 3 receptor sites in HG108-15
pKi: −log10 of the molar value.
Kindly return true if reported pKi is no lower than 9; return false if it is lower.

[ask] In plain terms: is recorded pKi at least 9 for CCCOc1cc(C(=O)NC2CC3CCC(C2)N3C)c2ccccc2n1 (stereo unspecified) ?
[reply] false

[ask] In plain terms: is recorded pKi at least 9 for CCCCn1c(=O)c(C(=O)NC2CC3CCC(C2)N3C)c(O)c2ccccc21 (stereo unspecified) ?
[reply] true

[ask] In plain terms: is recorded pKi at least 9 for CCCCOc1cc(C(=O)OC2CC3CCC(C2)N3C)c2ccccc2n1 (stereo unspecified) ?
[reply] true

[ask] In plain terms: is recorded pKi at least 9 for CCCCn1c(=O)c(C(=O)NC2CC3CCC(C2)N3C)c(O)c2cccnc21 (stereo unspecified) ?
[reply] false

[ask] In plain terms: is recorded pKi at least 9 for CC(C)n1c(=O)cc(C(=O)OC2CC3CCC(C2)N3C)c2ccccc21 (stereo unspecified) ?
[reply] true

[ask] In plain terms: is recorded pKi at least 9 for CN1C2CCC1CC(OC(=O)c1cc(-c3ccccc3)nc3ccccc13)C2 (stereo unspecified) ?
[reply] false

###

Tested on: Rattus norvegicus
Assay: Effective dose causing reduction of serotonin effect at 5 min administered iv in Bezold-Jarisch reflex test
Assay type: functional
Quantity Measured: ED50 (µg/kg)
# unit: µg/kg | format: bare number

[ask] Tell me its ED50 given Cc1nc2ccccc2c(O)c1C(=O)NC1CC2CCC(C1)N2C (configuration not stated) as the entry.
[reply] 15

[ask] Tell me its ED50 given CCCCCOc1cc(C(=O)OC2CC3CCC(C2)N3C)c2ccccc2n1 (configuration not stated) as the entry.
[reply] 1130

[ask] Tell me its ED50 given CN1C2CCC1CC(OC(=O)c1cc(-c3ccccc3)nc3ccccc13)C2 (configuration not stated) as the entry.
[reply] 340

[ask] Tell me its ED50 given CCCn1c(=O)cc(C(=O)OC2CC3CCC(C2)N3C)c2ccccc21 (configuration not stated) as the entry.
[reply] 330

[ask] Tell me its ED50 given CC(C)CCn1c(=O)cc(C(=O)OC2CC3CCC(C2)N3C)c2ccccc21 (configuration not stated) as the entry.
[reply] 59

[ask] Tell me its ED50 given CN1C2CCC1CC(NC(=O)c1cnc3ccccc3c1O)C2 (configuration not stated) as the entry.
[reply] 0.1

[ask] Tell me its ED50 given CC(C)Cc1cc(C(=O)OC2CC3CCC(C2)N3C)c2ccccc2n1 (configuration not stated) as the entry.
[reply] 5.6

[ask] Tell me its ED50 given CCn1c(=O)cc(C(=O)OC2CC3CCC(C2)N3C)c2ccccc21 (configuration not stated) as the entry.
[reply] 22

[ask] Tell me its ED50 given CN1C2CCC1CC(OC(=O)c1cnc3ccccc3c1O)C2 (configuration not stated) as the entry.
[reply] 1.7

[ask] Tell me its ED50 given CCOc1cc(C(=O)OC2CC3CCC(C2)N3C)c2ccccc2n1 (configuration not stated) as the entry.
[reply] 70

[ask] Tell me its ED50 given CN1C2CCC1CC(NC(=O)c1c(O)c3ccccc3n(-c3ccccc3)c1=O)C2 (configuration not stated) as the entry.
[reply] 73

[ask] Tell me its ED50 given CCCCOc1cc(C(=O)NC2CC3CCC(C2)N3C)c2ccccc2n1 (configuration not stated) as the entry.
[reply] 540

[ask] Tell me its ED50 given CCCCn1c(=O)c(C(=O)NC2CC3CCC(C2)N3C)c(O)c2ccccc21 (configuration not stated) as the entry.
[reply] 290

[ask] Tell me its ED50 given CCCCCCOc1cc(C(=O)OC2CC3CCC(C2)N3C)c2ccccc2n1 (configuration not stated) as the entry.
[reply] 7680

[ask] Tell me its ED50 given CCCCn1c(=O)c(C(=O)NC2CC3CCC(C2)N3C)c(O)c2cccnc21 (configuration not stated) as the entry.
[reply] 290

[ask] Tell me its ED50 given CCCCCn1c(=O)cc(C(=O)OC2CC3CCC(C2)N3C)c2ccccc21 (configuration not stated) as the entry.
[reply] 59

[ask] Tell me its ED50 given CN1C2CCC1CC(OC(=O)c1cc(=O)n(-c3ccccc3)c3ccccc13)C2 (configuration not stated) as the entry.
[reply] 44

[ask] Tell me its ED50 given CC(C)Cn1c(=O)cc(C(=O)OC2CC3CCC(C2)N3C)c2ccccc21 (configuration not stated) as the entry.
[reply] 33

[ask] Tell me its ED50 given CN1C2CCC1CC(OC(=O)c1cc(=O)n(Cc3ccccc3)c3ccccc13)C2 (configuration not stated) as the entry.
[reply] 150

[ask] Tell me its ED50 given CN1C2CCC1CC(NC(=O)c1cc(=O)n(-c3ccccc3)c3ccccc13)C2 (configuration not stated) as the entry.
[reply] 190

[ask] Tell me its ED50 given Cn1cc(C(=O)C2CCc3nc[nH]c3C2)c2ccccc21 (configuration not stated) as the entry.
[reply] 0.089

[ask] Tell me its ED50 given CCCCCCn1c(=O)cc(C(=O)OC2CC3CCC(C2)N3C)c2ccccc21 (configuration not stated) as the entry.
[reply] 86
